# TESTED SYSTEM: Potassium voltage-gated channel subfamily KQT member 2 (Rattus norvegicus)
# METHOD DESCRIPTION: KCNQ2 thallium flux enhancement – KCNQ2-CHO-K1 cells, selectivity assay for KCNQ1 potentiator project (AID 493009);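 also: assay conditions were tuned for KCNQ1 rather than KCNQ2 modulators; signal is max minus min fluorescence divided by baseline after thallium stimulus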
# EXPERIMENTAL CONTEXT: FluxOR thallium flux fluorescence, at 10 µM, scaled: buffer 0, activator control 100
The source made the active and inactive calls.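 The calls were made as follows: active = mean duplicate potentiation above the buffer control mean plus 5 SD of buffer wells; inactive = the rest.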
# output must be one of yes for active, no for inactive

Solved entries (count: 10):
INSERT INTO measurements (compound, label_value) VALUES
  ('Cc1[nH][nH]c(=O)c1C(c1ccc(-c2ccc(Cl)cc2)o1)c1c(C)[nH][nH]c1=O', 'no'),
  ('Cc1cc(C)c2c(=O)n(CC(=O)Nc3cccc(Cl)c3C)sc2n1', 'no'),
  ('O=C(Nc1ccnn1C1CCN(Cc2cc3ccccc3[nH]2)CC1)C1CCOC1 (configuration not stated)', 'yes'),
  ('Cc1cccc(NC(=S)NC(=O)c2ccc(Br)o2)c1', 'yes'),
  ('S=c1[nH]nc(-c2cc3c(s2)-c2ccccc2CC3)o1', 'yes'),
  ('CCn1c(O)c(N=NC2=NC(=O)CS2)c2cc(C)ccc21', 'yes'),
  ('CCn1c(=S)[nH]c2sc3c(c2c1=O)CCCCC3', 'yes'),
  ('CN(C)S(=O)(=O)N1CCC(CCCC2CCN(S(=O)(=O)N(C)C)CC2)CC1', 'yes'),
  ('CCCc1nc2oc3c(NCCN(C)C)ncnc3c2c2c1CCCC2', 'no'),
  ('CN(C)CC(CCC(CN(C)C)C(O)(c1ccccc1)c1ccccc1)C(O)(c1ccccc1)c1ccccc1 (configuration not stated)', 'no');

Task: Answer briefly: the call reported for "Cc1ccc(/C=N/NC(=O)c2cc3ccccc3cc2O)o1" in this assay.
Output: yes

Task: Answer briefly: the call reported for "COc1cc(C2(c3ccc(O)c(OC)c3)C(=O)Nc3c(C)cc(Br)cc32)ccc1O" in this assay.
Output: no

Task: Answer briefly: the call reported for CCC1(C)Cc2c(sc3[nH]c(=S)n(Cc4ccccc4)c(=O)c23)CO1 (configuration not stated) in this assay.
Output: yes

Task: Answer briefly: the call reported for Cc1ccc2c(c1)C1CN(C)CCC1N2C(=S)NC(=O)c1ccc(Br)cc1 (configuration not stated) in this assay.
Output: yes

Task: Answer briefly: the call reported for "CC(=O)C1=C(S(=O)(=O)c2ccc(C)cc2)CS(=O)(=O)C1" in this assay.
Output: yes

Task: Answer briefly: the call reported for "CCOC(=O)c1c(NC(=S)NC)sc2c1CCCC2" in this assay.
Output: yes

---

# Test system: TRPC4 (mouse), co-expressed with 5HT1a in HEK293
# METHOD DESCRIPTION: enhancement of serotonin-evoked TRPC4 response – cell-based, second counter screen, HEK293 TRPC4/5HT1a, Fluo-4, counter-screen for TRPC4 potentiator project, confirmation (AID 434979)
# EXPERIMENTAL CONTEXT: Fluo-4 calcium flux, at 10 µM, serotonin added at its EC20 dose; active compounds read high
Active and inactive are the calls of the source.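 Rule for the calls: active = signal rise over 3 SD above mean of control wells given weak agonist, in both repeats and first screen; inactive = the rest.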
READOUT TYPE: potentiation

Worked set:
INSERT INTO measurements (compound, tested_system, readout_type, result) VALUES
  ('O=C(Nc1ccc(Cl)cc1)N1CCC(c2nc(-c3cccs3)no2)CC1', 'TRPC4 (mouse), co-expressed with 5HT1a in HEK293', 'potentiation', 'inactive'),
  ('CCOC(=O)C1(Cc2cccc(OC)c2)CCN(Cc2cccc(O)c2)CC1', 'TRPC4 (mouse), co-expressed with 5HT1a in HEK293', 'potentiation', 'inactive'),
  ('O=C(c1cccc([N+](=O)[O-])c1)N1CCCC(C(=O)N2CCCCCC2)C1 (centres undefined)', 'TRPC4 (mouse), co-expressed with 5HT1a in HEK293', 'potentiation', 'inactive'),
  ('CCN1/C(=C\c2ccc3cc(C)ccc3[n+]2CC)Sc2cc(C)c(C)cc21', 'TRPC4 (mouse), co-expressed with 5HT1a in HEK293', 'potentiation', '41.7% (active)'),
  ('COc1ccccc1CNCC(c1ccccc1)c1ccccc1', 'TRPC4 (mouse), co-expressed with 5HT1a in HEK293', 'potentiation', 'inactive'),
  ('Cc1ccc2c(c1)N(C(=O)CCC(=O)Nc1ccccc1Br)CC(C)O2 (centres undefined)', 'TRPC4 (mouse), co-expressed with 5HT1a in HEK293', 'potentiation', 'inactive');

List potentiation for every entry below, keeping the order given.
1. CCC(C)[C@H](Nc1nc(-c2ccccc2)nc2c1oc1ccccc12)C(=O)O (some centres undefined)
2. CC(C)(C)Cc1nc2ccccc2n1CCc1ccccc1

Output:
1: inactive; 2: inactive

List potentiation for every entry below, keeping the order given.
1. Cc1[nH]c2ccccc2c1C(=O)CN1C(=O)NC(C)(c2ccc(Cl)cc2Cl)C1=O (centres undefined)
2. C=CCSc1nnc2n(-c3ccccc3OC)c(=O)c3c4c(sc3n12)CCC4
3. CCOC(=O)CSc1nc2ccccc2c(=O)n1C1CCCC1
4. CC(C)C(=O)Nc1ccc(C(=O)Nc2nnc(C(C)(C)C)s2)cc1
5. CCN(CC(=O)NCc1ccc(Cl)cc1)CC(=O)NC1(C#N)CCCC1

Output:
1. 37.7% (active)
2. inactive
3. inactive
4. inactive
5. inactive

List potentiation for every entry below, keeping the order given.
1. COC(=O)c1ccccc1N=Nc1c(C)[nH][nH]c1=O
2. Fc1ccccc1CNCCC(Cc1ccccc1)c1ccc2c(c1)OCO2 (centres undefined)
3. Cc1cc(NC(=O)CSCC(=O)Nc2ccc(Cl)c(C(F)(F)F)c2)no1
4. CCOC(=O)CSc1nc2c(sc(=S)n2Cc2ccco2)c(=O)n1-c1ccccc1
5. Cc1ccc(C(C)C)c(OCCCCN2CCNCC2)c1
6. NC(=O)NCCN1CCN(c2ncc(C(F)(F)F)cc2Cl)CC1
7. Cc1ccccc1-c1n[nH]c(=S)n1Cc1ccccc1
8. CN1CCN(c2nc3c(c(=O)n(C)c(=O)n3C)n2CC(=O)C23CC4CC(CC(C4)C2)C3)CC1

Output:
1: 14.7% (active); 2: inactive; 3: inactive; 4: inactive; 5: 23.8% (active); 6: 22% (active); 7: inactive; 8: inactive

---

# System: TRPC4 (mouse), co-expressed with 5HT1a in HEK293
# METHOD DESCRIPTION: enhancement of serotonin-evoked TRPC4 response – cell-based, second counter screen, HEK293 TRPC4/5HT1a, Fluo-4, counter-screen for TRPC4 potentiator project, confirmation (AID 434979)
# EXPERIMENTAL CONTEXT: Fluo-4 calcium flux, at 10 µM, serotonin added at its EC20 dose
Activity calls are given as the source filed them.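 Rule for the calls: active = signal rise over 3 SD above mean of control wells given weak agonist, in both repeats and first screen; inactive = the rest.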
# output must be one of true (1) = active, false (0) = inactive

Solved entries (count: 4):
INSERT INTO assay_data (compound, label_value) VALUES
  ('COc1cc(/C=C2\SC(N3CCC(C)CC3)=NC2=O)ccc1O', 'false (0)'),
  ('CN1CCN(c2ccc(Cl)cc2NC(=O)/C=C/c2cccc(F)c2)CC1', 'true (1)'),
  ('Cc1ccc(C[n+]2cc(-c3ccc(Cl)cc3)n3c2CCC3)cc1', 'false (0)'),
  ('c1ccc2c3c([nH]c2c1)CCNC3', 'false (0)');

Task: Answer briefly: the call reported for "CN1CCN(CCCNC(=O)CN2C(=O)COc3ccccc32)CC1" in this assay.
Output: false (0)

Task: Answer briefly: the call reported for "Cc1cccc(NC(=O)c2cc([N+](=O)[O-])ccc2N2CCN(C)CC2)c1" in this assay.
Output: true (1)

Task: Answer briefly: the call reported for "CC(C)C(=O)N1CCN(c2nc(-c3ccccc3)c3c(c2C#N)CCCC3)CC1" in this assay.
Output: true (1)

---

# Tested on: TRPC4 (mouse), co-expressed with 5HT1a in HEK293
# METHOD DESCRIPTION: enhancement of serotonin-evoked TRPC4 response – cell-based, second counter screen, HEK293 TRPC4/5HT1a, Fluo-4, counter-screen for TRPC4 potentiator project, confirmation (AID 434979)
# EXPERIMENTAL CONTEXT: Fluo-4 calcium flux, at 10 µM, serotonin added at its EC20 dose; active compounds read high
Activity calls are given as the source filed them.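 How the source made its calls: active means signal rise over 3 SD above mean of control wells given weak agonist, in both repeats and first screen; inactive means the rest.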
READOUT TYPE: potentiation

Worked set:
INSERT INTO assay_data (compound, tested_system, result) VALUES
  ('COc1cc(CNC2CCCC2)c(Br)cc1OC1CCCC1', 'TRPC4 (mouse), co-expressed with 5HT1a in HEK293', 'inactive'),
  ('COC(=O)/C=C1\SC(=NC(=O)c2cccc(Cl)c2)NC1=O', 'TRPC4 (mouse), co-expressed with 5HT1a in HEK293', 'inactive'),
  ('COc1ccc(/C=N/NC(=O)C2COc3ccccc3O2)cc1OC (stereo unspecified)', 'TRPC4 (mouse), co-expressed with 5HT1a in HEK293', 'inactive'),
  ('CN(C)CCNC(=O)c1scc2c1CCCC2', 'TRPC4 (mouse), co-expressed with 5HT1a in HEK293', 'inactive'),
  ('Cc1sc(NC(=O)c2ccccc2)c(C(=O)NCCN(C)C)c1C', 'TRPC4 (mouse), co-expressed with 5HT1a in HEK293', 'inactive');

List potentiation for every entry below, keeping the order given.
1. CCOc1ccc(CN(C)CC(=O)NNC(=O)c2ccc(Cl)cc2)cc1OC
2. CCCCc1nnc(NC(=O)C2CCN(c3ncnc4sc(C)c(C)c34)CC2)s1
3. NNc1ccc(Cc2ccc(Cl)cc2Cl)nn1

Output:
1: 11% (active); 2: inactive; 3: 15.2% (active)
